# measurementTarget: UniProtKB Q9Y271
# Sequence (Q9Y271 1-337): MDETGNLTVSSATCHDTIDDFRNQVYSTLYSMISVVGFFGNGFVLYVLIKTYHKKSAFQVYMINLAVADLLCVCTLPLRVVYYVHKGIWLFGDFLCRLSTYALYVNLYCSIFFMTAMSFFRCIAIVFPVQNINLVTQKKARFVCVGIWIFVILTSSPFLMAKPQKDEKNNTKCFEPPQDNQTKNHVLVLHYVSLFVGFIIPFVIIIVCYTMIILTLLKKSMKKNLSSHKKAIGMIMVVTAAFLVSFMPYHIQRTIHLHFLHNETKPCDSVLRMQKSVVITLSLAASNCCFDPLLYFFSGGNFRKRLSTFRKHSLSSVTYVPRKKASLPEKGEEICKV
# procedureText: Effects of compounds on LTD4-induced increase in intracellular calcium levels, CHO cells expressing the human cysLT1 receptor
# conditionsUsed: 100 nM LTD4, compound applied 30 minutes prior, read-out: IC50 (50% inhibitory concentration), LTD4-induced intracellular calcium influx
endpoint: IC50 (nM)

I = Cc1c(CCCC(=O)O)c2cccc(C#Cc3ccc(OCCCCc4cc(F)c(F)c(F)c4F)cc3)c2n1CC(=O)O
II = Cc1c(CCCC(=O)O)c2cccc(C#Cc3ccc(OCCCCc4c(F)c(F)c(F)c(F)c4F)cc3)c2n1CCCC(=O)O
Inquiry: Returns: the argument ( I or II ) having the larger IC50. Give the chosen item's label as your response.
Reply text: II

P = Cc1c(Cl)cccc1CCCCOc1ccc(C#Cc2cccc3c(CC4(CC(=O)O)CC4)c(C)n(CC(=O)O)c23)cc1
Q = Cc1c(F)cccc1CCCCOc1ccc(C#Cc2cccc3c(CC4(CC(=O)O)CC4)c(C)n(CC(=O)O)c23)cc1
Inquiry: Returns: the argument ( P or Q ) having the larger IC50. Give the chosen item's label as your response.
Reply text: Q
(Q: 0.24 nM, P: 0.16 nM)
